system under test: BRAF G466V (Homo sapiens, UniProt P15056, G466V)
Construct: expressed in transfected cells
Sequence (P15056 whole entry G466V): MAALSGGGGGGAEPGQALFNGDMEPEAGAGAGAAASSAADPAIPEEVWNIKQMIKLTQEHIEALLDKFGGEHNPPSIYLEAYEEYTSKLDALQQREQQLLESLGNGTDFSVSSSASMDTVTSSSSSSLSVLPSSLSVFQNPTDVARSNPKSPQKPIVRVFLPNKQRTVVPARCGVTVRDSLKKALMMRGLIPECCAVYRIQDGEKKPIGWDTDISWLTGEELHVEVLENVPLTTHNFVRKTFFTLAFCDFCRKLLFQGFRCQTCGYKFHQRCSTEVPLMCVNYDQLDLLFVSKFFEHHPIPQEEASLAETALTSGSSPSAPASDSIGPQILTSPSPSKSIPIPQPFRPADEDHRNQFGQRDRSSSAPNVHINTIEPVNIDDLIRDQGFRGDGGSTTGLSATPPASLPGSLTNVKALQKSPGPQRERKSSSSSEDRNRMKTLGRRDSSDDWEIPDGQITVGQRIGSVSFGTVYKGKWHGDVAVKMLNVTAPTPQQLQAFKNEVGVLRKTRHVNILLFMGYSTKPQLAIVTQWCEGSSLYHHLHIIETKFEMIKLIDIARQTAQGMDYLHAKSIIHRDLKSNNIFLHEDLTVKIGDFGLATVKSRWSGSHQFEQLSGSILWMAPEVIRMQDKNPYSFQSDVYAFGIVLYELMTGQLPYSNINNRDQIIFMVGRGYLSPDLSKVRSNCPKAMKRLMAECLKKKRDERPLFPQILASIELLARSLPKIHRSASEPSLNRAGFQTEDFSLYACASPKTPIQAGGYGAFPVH
test name: Cellular assay of target protein degradation, T-Rex 293 cells stably transfected with HA-BRAF G466V (HA immunofluorescence, high content imaging)
Type: cell-based
applied conditions: maximum degradation observed, T-Rex 293 HA-BRAF G466V
measured endpoint: Dmax

Reference set (2 entries):
compound | Dmax
COc1cc(N2CC3(CN(CC4CCN(c5ccc(-c6cnc7[nH]cc(C(=O)c8c(F)ccc(NS(=O)(=O)N9CC[C@@H](F)C9)c8F)c7c6)cc5)CC4)C3)C2)cc(F)c1C(=O)NC1CCC(=O)NC1=O (some centres unmarked) | > 70%
O=C1CC[C@@H](NC(=O)c2cc(C3CCN(CC4CCN(c5ccc(-c6cnc7[nH]cc(C(=O)c8c(F)ccc(NS(=O)(=O)N9CC[C@@H](F)C9)c8F)c7c6)cc5)CC4)CC3)ccc2F)C(=O)N1 | 35 to 70%

[ask] Any idea what Dmax was measured for COc1cc(C2CCN(CC3CCN(c4ncc(-c5cnc6[nH]cc(C(=O)c7c(F)ccc(NS(=O)(=O)N8CC[C@@H](F)C8)c7F)c6c5)cn4)CC3)CC2)cc2c1C(=O)N(C1CCC(=O)NC1=O)C2 (some centres unmarked) ?
[reply] > 70%

[ask] Proceed to O=C1CCC(N2Cc3cc(N4CCC(CN5CC(C6(c7ccc(-c8cnc9[nH]cc(C(=O)c%10c(F)ccc(NS(=O)(=O)N%11CC[C@@H](F)C%11)c%10F)c9c8)cc7)CC6)C5)CC4)ccc3C2=O)C(=O)N1 (some centres unmarked)
[reply] > 70%

[ask] Then O=C1CCC(N2Cc3cc(N4CCC(CCCN5CCN(c6ccc(-c7cnc8[nH]cc(C(=O)c9c(F)ccc(NS(=O)(=O)N%10CC[C@@H](F)C%10)c9F)c8c7)cc6)CC5)CC4)ccc3C2=O)C(=O)N1 (some centres unmarked) ?
[reply] > 70%

---

system under test: BRAF G466V (Homo sapiens, UniProt P15056, G466V)
Construct: expressed in transfected cells
test name: Cellular assay of target protein degradation, T-Rex 293 cells stably transfected with HA-BRAF G466V (HA immunofluorescence, high content imaging)
Format: cell-based
applied conditions: half maximal degradation, T-Rex 293 HA-BRAF G466V; read-out: BRaf G466V DC50
measured endpoint: DC50

The examples below pair each entry with its known result.
compound | DC50
O=C1CC[C@H](N2Cc3cc(C4CCN(CC5CCN(c6ccc(-c7cnc8[nH]cc(C(=O)c9c(F)ccc(NS(=O)(=O)N%10CCCC%10)c9F)c8c7)cc6)CC5)CC4)ccc3C2=O)C(=O)N1 | < 1 nM
CCCS(=O)(=O)Nc1ccc(F)c(-n2cc(-c3cncnc3)c3nc(N(C)C4CCN(C(=O)CCOCCOCCOCCOCCNc5cccc6c5C(=O)N(C5CCC(=O)NC5=O)C6=O)CC4)ccc32)c1F (stereo not drawn) | 10 to 30 nM
O=C1CC[C@H](N2Cc3cc(C4CCN(CC5CCN(c6ccc(-c7cnc8[nH]cc(C(=O)c9c(F)ccc(NS(=O)(=O)N%10CCC(F)(F)C%10)c9F)c8c7)cc6)CC5)CC4)ccc3C2=O)C(=O)N1 | 1 to 10 nM
O=C1CC[C@@H](N2Cc3cc(C4CN(CC5CCN(c6ccc(-c7cnc8[nH]cc(C(=O)c9c(F)ccc(NS(=O)(=O)N%10CC[C@@H](F)C%10)c9F)c8c7)cc6)CC5)C4)ccc3C2=O)C(=O)N1 | < 1 nM
O=C1CC[C@H](N2Cc3cc(C4CCN(CC5CCN(c6ccc(-c7cnc8[nH]cc(C(=O)c9c(F)ccc(NS(=O)(=O)N%10CC[C@@H](F)C%10)c9Cl)c8c7)cc6)CC5)CC4)ccc3C2=O)C(=O)N1 | < 1 nM

[ask] Which DC50 is reported for this compound? COc1ccc(NS(=O)(=O)N2CC[C@@H](F)C2)c(F)c1C(=O)c1c[nH]c2ncc(-c3ccc(N4CCC(CN5CCC(c6ccc7c(c6)CN(C6CCC(=O)NC6=O)C7=O)CC5)CC4)cc3)cc12 (stereo partly drawn)
[reply] 1 to 10 nM

[ask] Try this compound too: O=C1CC[C@H](N2Cc3cc(/C=C/CN4CC5(C4)CN(c4ccc(-c6cnc7[nH]cc(C(=O)c8c(F)ccc(NS(=O)(=O)N9CC[C@@H](F)C9)c8F)c7c6)cc4)C5)ccc3C2=O)C(=O)N1
[reply] < 1 nM

[ask] Same again, this time with O=C1CCC(N2Cc3cc(N4CCN(C[C@@H](O)Cc5ccc(-c6cnc7[nH]cc(C(=O)c8c(F)ccc(NS(=O)(=O)N9CC[C@@H](F)C9)c8F)c7c6)cc5)CC4)ccc3C2=O)C(=O)N1 (stereo partly drawn)
[reply] 1 to 10 nM

[ask] Moving on to COc1ccc(NS(=O)(=O)N2CC[C@@H](F)C2)c(OC)c1C(=O)c1c[nH]c2ncc(-c3ccc(N4CCC(CN5CCC(c6ccc7c(c6)CN([C@H]6CCC(=O)NC6=O)C7=O)CC5)CC4)cc3)cc12
[reply] > 30 nM

[ask] Again, but for O=C1CC[C@@H](NC(=O)c2ccc(N3CC4(CN(CC5CCN(c6ccc(-c7cnc8[nH]cc(C(=O)c9c(F)ccc(NS(=O)(=O)N%10CC[C@@H](F)C%10)c9F)c8c7)cc6)CC5)C4)C3)cn2)C(=O)N1
[reply] 1 to 10 nM

---

system under test: BRAF G466V (Homo sapiens, UniProt P15056, G466V)
Construct: expressed in transfected cells
test name: Cellular assay of target protein degradation, T-Rex 293 cells stably transfected with HA-BRAF G466V (HA immunofluorescence, high content imaging)
Format: cell-based
applied conditions: maximum degradation observed, T-Rex 293 HA-BRAF G466V
measured endpoint: Dmax

compound | Dmax
O=C1CCC(N2Cc3cc(N4CC5(CN(CCOc6ccc(-c7cnc8[nH]cc(C(=O)c9c(F)ccc(NS(=O)(=O)N%10CC[C@@H](F)C%10)c9F)c8c7)cc6F)C5)C4)ccc3C2=O)C(=O)N1 (stereo partly drawn) | > 70%
O=C1CC[C@@H](NC(=O)c2ccc(N3CCN(CC4CCN(c5ccc(-c6cnc7[nH]cc(C(=O)c8c(F)ccc(NS(=O)(=O)N9CC[C@@H](F)C9)c8F)c7c6)cc5)CC4)CC3)cc2F)C(=O)N1 | 35 to 70%

[ask] Look up Dmax: O=C1CCC(N2Cc3cc(N4CC5(CC(CN6CCc7cc(-c8cnc9[nH]cc(C(=O)c%10c(F)ccc(NS(=O)(=O)N%11CC[C@@H](F)C%11)c%10F)c9c8)ccc7C6)C5)C4)ccc3C2=O)C(=O)N1 (stereo partly drawn)
[reply] 35 to 70%

[ask] Here is the next compound: O=C1CC[C@@H](N2Cc3cc(C[C@@H](O)CN4CCC(c5ccc(-c6cnc7[nH]cc(C(=O)c8c(F)ccc(NS(=O)(=O)N9CC[C@@H](F)C9)c8F)c7c6)cc5)CC4)ccc3C2=O)C(=O)N1
[reply] > 70%

[ask] Now the same for O=C1CCC(N2Cc3cc(N4CCC(CN5CCCN(c6ccc(-c7cnc8[nH]cc(C(=O)c9c(F)ccc(NS(=O)(=O)N%10CC[C@@H](F)C%10)c9F)c8c7)cc6)CC5)CC4)ccc3C2=O)C(=O)N1 (stereo partly drawn)
[reply] 35 to 70%

[ask] // next record O=C1CCC(N2Cc3cc(N4CCC(CN5CCN(Cc6ccc(-c7cnc8[nH]cc(C(=O)c9c(F)ccc(NS(=O)(=O)N%10CC[C@@H](F)C%10)c9F)c8c7)cc6)CC5)CC4)ccc3C2=O)C(=O)N1 (stereo partly drawn)
[reply] > 70%

[ask] Next compound up: O=C1CCC(N2Cc3cc(C4CCN(CC5CCN(c6ccc(-c7cnc8[nH]cc(C(=O)c9c(F)ccc(NS(=O)(=O)N%10CCCC%10)c9F)c8c7)cc6)CC5)CC4)ccc3C2=O)C(=O)N1 (stereo not drawn)
[reply] > 70%

[ask] Next up: COc1cc(N2CCN(CC3CCN(c4ccc(-c5cnc6[nH]cc(C(=O)c7c(F)ccc(NS(=O)(=O)N8CC[C@@H](F)C8)c7F)c6c5)cc4)CC3)CC2)ccc1C(=O)N[C@H]1CCC(=O)NC1=O
[reply] > 70%

[ask] Entry to check: COc1cc(C2CCN(CC3CCN(c4ccc(-c5cnc6[nH]cc(C(=O)c7c(F)ccc(NS(=O)(=O)N8CC[C@@H](F)C8)c7F)c6c5)cc4F)CC3)CC2)cc2c1C(=O)N(C1CCC(=O)NC1=O)C2 (stereo partly drawn)
[reply] > 70%

---

system under test: BRAF V600E (Homo sapiens, UniProt P15056, V600E)
Construct: expressed in transfected cells
Sequence (P15056 whole entry V600E): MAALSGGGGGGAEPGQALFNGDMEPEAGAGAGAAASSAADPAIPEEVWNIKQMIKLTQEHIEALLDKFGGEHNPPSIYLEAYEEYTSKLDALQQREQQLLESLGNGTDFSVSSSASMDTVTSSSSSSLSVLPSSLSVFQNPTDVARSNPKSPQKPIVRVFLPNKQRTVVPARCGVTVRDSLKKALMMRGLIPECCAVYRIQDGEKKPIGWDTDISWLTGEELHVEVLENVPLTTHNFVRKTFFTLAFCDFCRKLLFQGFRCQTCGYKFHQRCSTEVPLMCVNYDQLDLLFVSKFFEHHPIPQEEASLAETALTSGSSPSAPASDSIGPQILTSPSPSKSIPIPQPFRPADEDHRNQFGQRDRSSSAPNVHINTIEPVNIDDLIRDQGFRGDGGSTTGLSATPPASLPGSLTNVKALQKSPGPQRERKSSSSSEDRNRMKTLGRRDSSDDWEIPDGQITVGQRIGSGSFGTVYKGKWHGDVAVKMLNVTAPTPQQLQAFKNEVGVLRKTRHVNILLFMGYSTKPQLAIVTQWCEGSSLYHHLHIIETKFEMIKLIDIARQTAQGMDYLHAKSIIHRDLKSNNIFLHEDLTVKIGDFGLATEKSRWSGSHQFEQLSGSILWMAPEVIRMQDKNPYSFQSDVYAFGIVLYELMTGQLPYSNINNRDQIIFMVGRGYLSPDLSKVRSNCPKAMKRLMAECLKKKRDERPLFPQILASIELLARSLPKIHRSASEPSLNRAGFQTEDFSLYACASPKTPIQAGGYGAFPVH
test name: Cellular assay of target protein degradation, T-Rex 293 cells stably transfected with HA-BRAF_V600E (HA immunofluorescence, high content imaging)
Type: cell-based
applied conditions: half maximal degradation, T-Rex 293 HA-BRAF V600E; read-out: BRaf V600E DC50
measured endpoint: DC50

Past entries and their recorded results:
compound | result
CNc1cc(-c2cnc3[nH]cc(C(=O)c4c(F)ccc(NS(=O)(=O)N5CC[C@@H](F)C5)c4F)c3c2)cc(NC)c1N1CCC(CN2CCC(c3ccc4c(c3)CN(C3CCC(=O)NC3=O)C4=O)CC2)CC1 (stereo partly drawn) | 5 to 50 nM
CC1(N2Cc3cc(C4CCN(CC5CCN(c6ccc(-c7cnc8[nH]cc(C(=O)c9c(F)ccc(NS(=O)(=O)N%10CC[C@@H](F)C%10)c9F)c8c7)cc6)CC5)CC4)ccc3C2=O)CCC(=O)NC1=O (stereo partly drawn) | 50 to 500 nM
O=C1CCC(N2Cc3cc(C4CCN(C[C@@H]5CCN(c6ccc(-c7cnc8[nH]cc(C(=O)c9c(F)ccc(NS(=O)(=O)N%10CC[C@@H](F)C%10)c9F)c8c7)cc6)C(=O)C5)CC4)ccc3C2=O)C(=O)N1 (stereo partly drawn) | 50 to 500 nM
COc1cc(N2CC3(CN(CC4CCN(c5ccc(-c6cnc7[nH]cc(C(=O)c8c(F)ccc(NS(=O)(=O)N9CC[C@@H](F)C9)c8F)c7c6)cc5)CC4)C3)C2)cc(F)c1C(=O)N[C@H]1CCC(=O)NC1=O | 5 to 50 nM
O=C1CC[C@H](N2Cc3cc(N4CC(CN5CCN(C6(c7ncc(-c8cnc9[nH]cc(C(=O)c%10c(F)ccc(NS(=O)(=O)N%11CC[C@@H](F)C%11)c%10F)c9c8)cn7)CC6)CC5)C4)ccc3C2=O)C(=O)N1 | 50 to 500 nM

# context switch: different compound, same DC50
[ask] Recorded DC50 for O=C1CC[C@@H](N2Cc3cc(N4CCC(CN5CCN(c6ccc(-c7cnc8[nH]cc(C(=O)c9c(F)ccc(NS(=O)(=O)N%10CC[C@@H](F)C%10)c9F)c8c7)cc6)CC5)CC4)c(F)cc3C2=O)C(=O)N1 , please?
[reply] > 500 nM

Every entry's value here was drawn from patent US12180193B2.
